# Tested target: tyrosinase (Mus musculus, UniProt P11344)
# Construct: the supernatant obtained constitutes the cell lysate used as tyrosinase source in the enzymatic assay; endogenous in cells; host or cells: B16F1 murine melanoma cells, cultured with alpha-MSH, lysed in 1% Igepal and sonicated; the supernatant was used
# Sequence (P11344 19-533): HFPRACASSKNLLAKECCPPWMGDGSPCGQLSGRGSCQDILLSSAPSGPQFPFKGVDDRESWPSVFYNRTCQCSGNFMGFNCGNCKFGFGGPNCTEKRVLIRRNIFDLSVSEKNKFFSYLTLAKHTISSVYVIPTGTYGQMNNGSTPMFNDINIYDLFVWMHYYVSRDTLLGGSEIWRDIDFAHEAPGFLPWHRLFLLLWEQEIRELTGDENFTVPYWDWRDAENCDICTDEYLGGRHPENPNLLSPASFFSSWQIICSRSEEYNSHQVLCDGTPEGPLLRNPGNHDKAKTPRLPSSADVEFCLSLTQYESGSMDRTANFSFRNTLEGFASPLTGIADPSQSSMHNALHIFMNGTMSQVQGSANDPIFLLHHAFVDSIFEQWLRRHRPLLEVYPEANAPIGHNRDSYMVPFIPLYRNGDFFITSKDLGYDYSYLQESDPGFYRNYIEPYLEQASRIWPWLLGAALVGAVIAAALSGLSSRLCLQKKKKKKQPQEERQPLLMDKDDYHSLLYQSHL
# Test: Tyrosinase activity inhibition assay (B16F1 cell lysate, L-tyrosine substrate, MBTH trapping, absorbance 520 nm)
# Format: biochemical
# Condition summary: lysate of B16F1 cells (murine melanoma line) as tyrosinase source, 37° C., reading at 520 nm after 6 hours, read-out: Tyrosine hydroxylase/Dopa oxidase IC50
pIC50: −log10 of the molar value.
Please use Y whenever pIC50 is not below 6, and N whenever it is.

Reference set (3 entries):
{"Molecule": "S=c1[nH]cc(-c2cccc(Br)c2)[nH]1", "Assigned class": "N"}
{"Molecule": "Sc1nc(-c2ccccc2)c[nH]1 [Compound 1, 4-phenyl-1,3-dihydroimidazole-2-thione]", "Assigned class": "Y"}
{"Molecule": "Fc1ccc(-c2c[nH]c(=S)[nH]2)cc1", "Assigned class": "Y"}

Next, consider the following molecule.
Q: Tell me whether pIC50 is at least 6 here: Cc1ccc(-c2cnc(S)[nH]2)cc1
A: Y
